Values compiled from patent EP3722295A1.

- PROTOCOL_DETAILS: physchem
ASSAY_READOUT: logP
Give bare numbers.

Query string: Value lookup for logP; key = C#CCCCNc1ncc2cc(-c3cc(OC)cc(OC)c3)c(NC(=O)NC(C)(C)C)nc2n1 [LSP61]
Result string: 4.8
